Reference for the values: ChEMBL document CHEMBL1133671

target.of.assay: Cholecystokinin receptor type A (Rattus norvegicus, UniProt P30551)
Sequence (P30551 whole entry): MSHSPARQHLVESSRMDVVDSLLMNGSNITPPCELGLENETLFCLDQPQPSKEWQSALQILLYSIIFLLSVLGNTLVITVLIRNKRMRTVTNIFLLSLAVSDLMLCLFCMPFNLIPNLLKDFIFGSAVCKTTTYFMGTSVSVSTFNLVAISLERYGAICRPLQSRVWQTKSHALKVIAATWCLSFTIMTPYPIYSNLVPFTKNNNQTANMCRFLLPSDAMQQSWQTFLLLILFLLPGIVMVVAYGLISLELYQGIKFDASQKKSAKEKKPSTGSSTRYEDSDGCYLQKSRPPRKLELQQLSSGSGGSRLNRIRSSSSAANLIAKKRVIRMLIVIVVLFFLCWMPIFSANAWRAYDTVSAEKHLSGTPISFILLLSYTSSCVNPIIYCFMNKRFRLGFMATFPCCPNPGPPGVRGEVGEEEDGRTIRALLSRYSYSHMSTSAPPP
assay.text: In vitro inhibition of binding of [3H]pCCK-8 against Cholecystokinin type A receptor of rat pancreatic membranes
Format: cell membranes, Membrane
Recorded pKi for the following compounds
Remember the convention: pKi equals -log10 of concentration in molar.

Consider the following illustrative entries.
O=C(Nc1cccc(O)c1)NC1C(=O)N(CC23C[C@H]4C[C@@H](C2)C[C@@H](C3)C4)c2ccccc2N(c2ccccc2)C1=O (single isomer, unassigned; (+))	5.80
CC(C)CCN1C(=O)C(NC(=O)Nc2cccc(N(C)C)c2)C(=O)N(c2ccccc2F)c2ccccc21 (single isomer, unassigned; (+))	6.70
CN(C)c1ccc(NC(=O)NC2C(=O)N(CCC3CCCC3)c3ccccc3N(c3ccccc3F)C2=O)cc1 (racemic)	6.18

(Q) Item: CC(C)CC(C)N1C(=O)C(NC(=O)Nc2ccccc2)C(=O)N(c2ccccc2)c2ccccc21 (racemic) Test system: Cholecystokinin receptor type A (Rattus norvegicus, UniProt P30551) Read-out: pKi Value: ?
(A) 6.94

---

Species: Cavia porcellus
assay.text: Selectivity factor between CCK-B and CCK-A receptors
// bucketize Ratio: I (below 40), II (40 to below 200), III (200 or more)

CN(C)c1cccc(NC(=O)NC2C(=O)N(c3ccccc3)c3ccccc3N(C3[C@H]4C[C@@H]5C[C@@H](C[C@H]3C5)C4)C2=O)c1 (stereo partly drawn)	II
O=C(Nc1ccccc1)NC1C(=O)N(CCC23C[C@H]4C[C@@H](C2)C[C@@H](C3)C4)c2ccccc2N(c2ccccc2)C1=O (mixture of isomers)	I
Nc1cccc(NC(=O)NC2C(=O)N(CC34C[C@H]5C[C@@H](C3)C[C@@H](C4)C5)c3ccccc3N(c3ccccc3)C2=O)c1 (single isomer, unassigned; (+))	III
CCCCN1C(=O)C(NC(=O)Nc2ccccc2)C(=O)N(c2ccccc2)c2ccccc21 (racemic)	II
CCOC(=O)CCCOc1ccc(NC(=O)NC2C(=O)N(CC34C[C@H]5C[C@@H](C3)C[C@@H](C4)C5)c3ccccc3N(c3ccccc3)C2=O)cc1 (single isomer, unassigned; (+))	III
CN(C)c1cccc(NC(=O)NC2C(=O)N(CCC3CCCC3)c3ccccc3N(c3ccccc3F)C2=O)c1 (racemic)	II
CC(C)CCN1C(=O)C(NC(=O)Nc2ccccc2)C(=O)N(c2ccccc2F)c2ccccc21 (racemic)	I
O=C(Nc1cccc([N+](=O)[O-])c1)NC1C(=O)N(CC23C[C@H]4C[C@@H](C2)C[C@@H](C3)C4)c2ccccc2N(c2ccccc2)C1=O (mixture of isomers)	II
O=C(Nc1ccc(Br)cc1)NC1C(=O)N(CC23C[C@H]4C[C@@H](C2)C[C@@H](C3)C4)c2ccccc2N(c2ccccc2)C1=O (stereo partly drawn)	III
O=C(Nc1cccc(C2N=NN=N2)c1)NC1C(=O)N(CCC2CCCC2)c2ccccc2N(c2ccccc2F)C1=O (racemic)	III

(Q) Determine which band this compound sits in: O=C(O)CCCOc1ccc(NC(=O)NC2C(=O)N(CC34C[C@H]5C[C@@H](C3)C[C@@H](C4)C5)c3ccccc3N(c3ccccc3)C2=O)cc1 (single isomer, unassigned; (+))
(A) III

(Q) Determine which band this compound sits in: O=C(Nc1ccccc1)NC1C(=O)N(CCc2ccccc2)c2ccccc2N(c2ccccc2)C1=O (racemic)
(A) I
